This collection of values is drawn from patent US7659277B2.

# study.system: POSH (Homo sapiens)
# Sequence (Q7Z6J0 1-269 limits assumed): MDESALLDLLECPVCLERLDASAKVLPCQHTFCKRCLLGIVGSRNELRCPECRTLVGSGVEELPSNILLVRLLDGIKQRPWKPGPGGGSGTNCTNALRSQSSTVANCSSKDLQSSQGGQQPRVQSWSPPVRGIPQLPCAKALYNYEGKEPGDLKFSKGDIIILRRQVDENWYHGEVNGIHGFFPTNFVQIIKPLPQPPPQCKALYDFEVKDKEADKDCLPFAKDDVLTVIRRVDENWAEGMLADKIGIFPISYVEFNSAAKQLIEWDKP
pIC50: −log10 of the molar value.
Label label 1 when pIC50 >= 6; otherwise label 0.

# compound, classification
records = [
    ("COc1cc(C=C2C(=O)N(C)C(=S)N(C)C2=O)ccc1O [Compound 9]", "label 0"),
    ("CN1C(=O)/C(=C\\c2ccc(-c3cccc([N+](=O)[O-])c3)o2)SC1=S [Compound 115]", "label 1"),
    ("Cc1ccc(/N=C/c2cc(Br)cc(Br)c2O)c(C)c1 [Compound 54]", "label 1"),
]
